Test system: Hek293T
testName: Primary qHTS to identify gynecologic anti-cancer compounds using libraries of approved drugs and bioactive compounds (AID 1345084); note: % is set by controls: 0 for no effect and ±100 for the full control effect; nearly all actives have a fitted effect of over 55% in size
reportedConditions: Gynecologic cancer cell panel viability, ATPlite luminescence, 48 h, control line for the selectivity index; series mostly up to 57.5 µM
Results filed as inconclusive are left out. Activity calls are given as the source filed them. Calls come from the whole dose curve; as a rule, active = well fitted cell-killing curve with a large enough effect; inconclusive = small, poorly fitted or top-dose-only effect, or effect the other way; inactive = flat fitted curve, though single readings scatter.
readout: activity change, negative = cytotoxicity

• O=C(O)CCc1ccc(NCc2cccc3c2CCCN3CCOc2ccccc2)cc1F = inactive
• CC1(C)CC[C@]2(C(=O)O[C@@H]3O[C@H](CO[C@@H]4O[C@H](CO[C@@H]5O[C@H](CO)[C@H](O)[C@H](O)[C@H]5O)[C@@H](O)[C@H](O)[C@H]4O)[C@@H](O)[C@H](O[C@@H]4O[C@H](CO)[C@@H](O)[C@H](O)[C@H]4O)[C@H]3O)[C@H](O)C[C@]3(C)C(=CCC4[C@@]5(C)CC[C@H](O[C@@H]6OC[C@@H](O)[C@H](O)[C@H]6O)[C@@](C)(C(=O)O)C5CC[C@]43C)[C@@H]2C1 (some centres not stated) = -1.44% [at 6.55 µM] (inactive)
• C=C1Cc2c(Cl)cc3[nH]c4c5c3c2[C@@]2(O)[C@@H]1C[C@@H]2C(C)(C)O[C@H]5C1CC[C@@]2(O)[C@@]35O[C@@H]3[C@H]3OC(C)(C)[C@H]3O[C@H]5CC[C@]2(C)[C@@]41C (some centres not stated) = inactive
• C[C@@H]1O[C@@H](O[C@H]2[C@H](O[C@H]3[C@H](O[C@H]4CC[C@@]5(C)C(CC[C@]6(C)C5CC=C5[C@@H]7CC(C)(C)CC(=O)[C@]7(C)CC[C@]56C)[C@@]4(C)CO)O[C@H](C(=O)O)[C@@H](O)[C@@H]3O)O[C@H](CO)[C@H](O)[C@@H]2O)[C@H](O)[C@H](O)[C@H]1O (some centres not stated) = -1.22% [at 11.6 µM] (inactive)
• COC(=O)C1=CO[C@@H](O[C@@H]2O[C@H](CO)[C@@H](O)[C@H](O)[C@H]2O)[C@H]2[C@@H]1[C@H](O)C[C@]2(C)O = inactive
• C=C1C(=O)OC[C@H]2C(C(=O)O)=CC3CC(C)(C)C[C@@]132 (some centres not stated) = inactive
• CCC/C=C1\OC(=O)C2=C1CCC(O)C2O (configuration not stated) = inactive
• O=C(O[C@H]1[C@H](Oc2ccc(O)cc2CO)O[C@H](CO)[C@@H](O)[C@@H]1O)c1ccccc1 = inactive
• OC[C@H]1O[C@@H](OCc2ccccc2)[C@H](O[C@@H]2OC[C@@H](O)[C@H](O)[C@H]2O)[C@@H](O)[C@@H]1O = inactive
• CC(C)C1NC(=O)C2CCCN2C1=O (configuration not stated) = inactive
• COc1ccc(/C=C/C(=O)O[C@@H]2[C@@H](O)[C@@H](O)[C@H](O[C@H]3[C@@H]4C=CO[C@@H](O[C@@H]5O[C@H](CO)[C@@H](O)[C@H](O)[C@H]5O)[C@@H]4[C@@]4(CO)O[C@@H]34)O[C@H]2C)cc1 = inactive
• CC(NC(=O)[C@H](Cc1ccccc1)NC(=O)OCc1ccccc1)C(=O)CF (some centres not stated) = inactive

----------
System: JEG-3
testName: Primary qHTS to identify gynecologic anti-cancer compounds using libraries of approved drugs and bioactive compounds (AID 1345084); note: % is set by controls: 0 for no effect and ±100 for the full control effect; nearly all actives have a fitted effect of over 55% in size
reportedConditions: Gynecologic cancer cell panel viability, ATPlite luminescence, 48 h; series mostly up to 57.5 µM
Results filed as inconclusive are left out. The source made the active and inactive calls. Calls come from the whole dose curve; as a rule, active = well fitted cell-killing curve with a large enough effect; inconclusive = small, poorly fitted or top-dose-only effect, or effect the other way; inactive = flat fitted curve, though single readings scatter.
readout: activity change, negative = cytotoxicity

- Cc1ccc(C)c(S(=O)(=O)n2cnc3ccccc32)c1: inactive
- COc1cccc(OC)c1-c1nc(C(=O)N[C@@H](CC(C)C)C(=O)O)cn1-c1ccnc2cc(Cl)ccc12: inactive
- C=CCc1ccc(O[C@@H]2O[C@H](CO)[C@@H](O)[C@H](O)[C@H]2O)c(O[C@@H]2O[C@H](CO)[C@@H](O)[C@H](O)[C@H]2O)c1: inactive
- COC1OC(OC)C(O)(CCC2(C)C(C)CCC3(C)C2CC(O)C(O)C32CO2)C1O (centres undefined): inactive

----------
System: NIH3T3
testName: Cytotoxic Profiling of Annotated Libraries Using Quantitative High-Throughput Screening (AID 1296008); note: nearly all actives have a fitted effect of over 60% in size; for max response: % is set by controls: 0 for no effect and ±100 for the full control effect
reportedConditions: Five cell lines viability, CellTiter-Glo ATP luminescence, 48-72 h; active compounds read low
Results filed as inconclusive are left out.
readout: max response (%)

- C=CC(C)(CC/C=C(\C)C(=O)OC)OC1OC(COC(=O)CC(C)(O)CC(=O)O)C(O)C(O)C1O (centres undefined): -0.702
- CCCC(C(=O)O)c1c(C)nc2ccc(Cl)cc2c1-c1ccccc1 (centres undefined): 1.27
- COc1ccc2c(c1)N1C(=O)C[C@@]34C=CC[N@+]5([O-])CC[C@H]2[C@H](CC3)[C@@]145: -2.66
- CC[C@@H](C)[C@H](N)C(=O)N1Cc2ccccc2C1: 0.412
- COc1cc(O)cc2c1C(=O)OC(C)CCCCCCC2 (centres undefined): -11.2
- C[C@@H]1[C@H]2[C@H](O[C@@H]3O[C@H](CO)[C@@H](O)[C@H](O)[C@H]3O)OC=C(C(=O)O)[C@H]2C[C@@H]1OC(=O)/C=C/c1ccc(O)cc1: 1.42
- COc1ccc(-n2c(SCC#N)nc3sc4c(c3c2=O)CCCC4)cc1: 4.07
- N#Cc1cc(-c2n[nH]c(-c3ccncc3)n2)ccn1: 0.552
- CS(=O)(=O)c1ccccc1N1CCN(c2nc3c(c(=O)[nH]2)CSCC3)CC1: -5.12

----------
Test system: NIH3T3
testName: Cytotoxic Profiling of Annotated Libraries Using Quantitative High-Throughput Screening (AID 1296008); note: nearly all actives have a fitted effect of over 60% in size
reportedConditions: Five cell lines viability, CellTiter-Glo ATP luminescence, 48-72 h
Records with an inconclusive call do not appear. Calls of active or inactive are those of the source. The call rests on the fitted dose curve; in most records, active means well fitted inhibition curve with a large enough effect; inconclusive means small, poorly fitted or top-dose-only effect; inactive means flat fitted curve, though single readings scatter.
readout: outcome

- C[C@@H]1O[C@@H](O[C@H]2[C@H](OC(=O)[C@]34CCC(C)(C)C[C@H]3C3=CCC5[C@@]6(C)C[C@@H](O)[C@@H](O)[C@@](C)(CO)C6[C@H](O)C[C@@]5(C)[C@]3(C)CC4)OC[C@H](O)[C@@H]2O)[C@H](O)[C@H](O)[C@H]1O[C@@H]1OC[C@@H](O)[C@H](O[C@H]2O[C@H](C)[C@@H](O)[C@H](O)[C@@H]2O)[C@H]1O (some centres undefined): inactive
- COC(=O)C1=COC(O[C@@H]2O[C@H](CO)[C@@H](O)[C@H](O)[C@H]2O)/C(=C\COC(=O)/C=C/c2ccccc2)C1CC(=O)OCCc1ccc(O)cc1 (some centres undefined): inactive
- NC[C@@H]1O[C@@H](O[C@@H]2[C@@H](O[C@@H]3O[C@H](CO)[C@@H](O)[C@H]3O)[C@H](O)[C@@H](N)C[C@H]2N)[C@@H](N)[C@H](O)[C@H]1O: inactive
- CC1(C)CC2C(O)C3=C(CC(C)(O)C2C1)C(=O)OC3 (centres undefined): inactive
- C=C1C[C@@]2(O)O[C@@]3(C[C@H]2C(C)C)[C@@H](C)CC[C@@H]13: inactive
- CCC1=C(C)C(=O)C(C)CC12C(=O)CCC2C(=O)O (centres undefined): inactive
- CC1C(=O)OCC2=CC[N+]3([O-])CCC(OC(=O)C(C)(O)C1(C)O)C23 (centres undefined): inactive
- COc1ccc(N2CCN(CCCNC(=O)Cn3c(=O)c4cccn4c4c(C)ccnc43)CC2)cc1: inactive
- COC(=O)C1=CO[C@@H](O[C@@H]2O[C@H](CO)[C@@H](O)[C@H](O)[C@H]2O)[C@@H]2[C@@H](C)[C@@H](O)C(O)[C@H]12 (some centres undefined): inactive
- COC(=O)/C=C/c1ccc(O[C@@H]2O[C@H](CO)[C@@H](O)[C@H](O)[C@H]2O)cc1: inactive
- CC1=C(CO)CC(C(C)C2CCC3C4CC=C5CC(OC6OC(COC7OC(CO)C(O)C(O)C7O)C(O)C(O)C6O)CC(O)C5(C)C4CCC23C)OC1=O (centres undefined): inactive
- Cc1ccc2[nH]c(=O)c(C3=NN(C(=O)CCC(=O)O)C(c4ccc(Br)cc4)C3)c(-c3ccccc3)c2c1 (centres undefined): inactive
- COC(=O)c1c(CC=C(C)C)c(OC2OC(CO)C(O)C(O)C2O)c2ccccc2c1OC1OC(CO)C(O)C(O)C1O (centres undefined): inactive
- O=C(/C=C/C=C/c1ccc2c(c1)OCO2)N1CCCCC1: inactive
- C=CCc1ccc(O[C@@H]2O[C@H](CO)[C@@H](O)[C@H](O)[C@H]2O)c(O[C@@H]2O[C@H](CO)[C@@H](O)[C@H](O)[C@H]2O)c1: inactive
- O=C(Nc1cc(-c2ccccc2)nn1-c1ccccc1)c1ccc([N+](=O)[O-])cc1: inactive
- CC1(C)CC[C@]2(C(=O)O[C@@H]3O[C@H](CO)[C@@H](O)[C@H](O)[C@H]3O)CC[C@]3(C)C(=CCC4[C@@]5(C)C[C@H](O)[C@H](O[C@@H]6OC[C@@H](O)[C@H](O)[C@H]6O)[C@@](C)(CO)C5CC[C@]43C)C2C1 (some centres undefined): inactive
- COC(=O)C1(O)C(OC(C)=O)CCC2C3(CC(c4ccoc4)OC3=O)C(C)=CCC21C(=O)OC (centres undefined): inactive
- CC(C(=O)Nc1cc(C#N)ccc1CCCC(=O)O)c1ccc(F)c2ccccc12 (centres undefined): inactive
- CC(=O)OC12CC(C)C(O)C1/C=C(/COC1OC(CO)C(O)C(O)C1O)CCC1C(/C=C(\C)C2=O)C1(C)C (centres undefined): inactive
- Cc1ccccc1-n1nc(-c2c(-c3ccc(F)cc3)nn3c2NC[C@@H](CO)C3)ccc1=O: inactive
- C=C[C@@]1(C)CCC2=C([C@H]1OC(C)=O)[C@H](OC(C)=O)CC1[C@](C)(C(=O)OC)CC[C@H](OC(C)=O)[C@]21C (some centres undefined): inactive
- CC(C/C=C/C(C)(C)O)C1CCC(C)(O)C(O)C1 (centres undefined): inactive
- O=C(/C=C/c1ccc(O)c(O)c1)O[C@H]1[C@H](OC2CCCCC2O)O[C@H](CO)[C@@H](O)[C@@H]1O (some centres undefined): inactive
- Cc1occc(=O)c1O[C@@H]1O[C@H](COC(=O)CC(C)(O)CC(=O)O)[C@@H](O)[C@H](O)[C@H]1O (some centres undefined): inactive
- CCc1nnc(NS(=O)(=O)c2ccc(NC(=S)NC(=O)/C=C/c3ccc(F)cc3)cc2)s1: inactive
- C/C(=C\C1CCC(C)C2CCC3(C)OC123)C(=O)O (centres undefined): inactive
- COC(=O)C1=CO[C@@H](O[C@@H]2O[C@H](CO)[C@@H](O)[C@H](O)[C@H]2O)/C(=C\CO)[C@@H]1CC(=O)OCCc1ccc(O)cc1: inactive
- CC(=O)OCC1OC(O[C@H]2CC[C@@]3(C)C(CC[C@]4(C)C3CC=C3[C@@H]5CC(C)(C)CC[C@]5(C(=O)O)CC[C@]34C)[C@]2(C)CO)C(O)C(O)C1OC1OC(C)C(O)C(OC2OCC(O)C(O)C2O)C1O (some centres undefined): inactive

Hey, just so you know, these numbers are from PubChem BioAssay (NCATS).
